The origin of these recorded values is patent US20250163047A1.

Let's look at some compounds and their measured IC50.
target entity: Cbl (aa49-434) (Homo sapiens, UniProt P22681)
Construct: Cbl (aa49-434, in-house); made in house
Sequence (P22681 49-434): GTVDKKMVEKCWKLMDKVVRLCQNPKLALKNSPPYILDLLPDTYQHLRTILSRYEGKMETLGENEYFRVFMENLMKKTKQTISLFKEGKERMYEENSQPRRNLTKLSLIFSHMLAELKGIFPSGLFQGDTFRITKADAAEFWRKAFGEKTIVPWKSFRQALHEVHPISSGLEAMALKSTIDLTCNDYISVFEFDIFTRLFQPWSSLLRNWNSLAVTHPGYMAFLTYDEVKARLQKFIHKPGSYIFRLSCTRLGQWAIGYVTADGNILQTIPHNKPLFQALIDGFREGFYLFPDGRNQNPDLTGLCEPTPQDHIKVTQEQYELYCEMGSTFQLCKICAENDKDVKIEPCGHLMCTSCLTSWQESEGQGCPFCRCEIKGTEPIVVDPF
procedure details: Co-expressed Cbl with BirA biochemical assay (CBL/E2-Ub binding, HTRF)
experimental conditions: 0.6 nM Cbl co-expressed with BirA, read-out: co-express CBL/E2-Ub-binding assay IC50
All answers are understood in nM, so give the number only.

Study these solved cases before continuing.
| structure as smiles | target entity | IC50 [nM] |
| --- | --- | --- |
| CC(C)CNCc1cc(C(=O)Nc2cncc([C@]3(c4nncn4C)C[C@@H](C)C3)c2)nc2c(Cl)c[nH]c12 | Cbl (aa49-434) (Homo sapiens, UniProt P22681) | 14 |
| C[C@H]1CCCN(Cc2cc(C(=O)Nc3cccc([C@]4(c5nncn5C)C[C@@H](CC#N)C4)c3)nc3c2NCC3(C)C)C1 | Cbl (aa49-434) (Homo sapiens, UniProt P22681) | 9.2 |
| Cn1cnnc1[C@]1(c2cncc(NC(=O)c3cc(CNC4(C)CC4)cn4ccnc34)c2)C[C@H](C)C1 | Cbl (aa49-434) (Homo sapiens, UniProt P22681) | 5.5 |
| C[C@H]1CCCN(Cc2cc(C(=O)Nc3cccc([C@]4(c5nncn5C)C[C@@H](CC#N)C4)c3)nc3c2CCC3(C)C)C1 | Cbl (aa49-434) (Homo sapiens, UniProt P22681) | 15.7 |
| Cc1cnc2c(C(=O)Nc3cccc([C@]4(c5nncn5C)C[C@@H](C)C4)c3)cc(CN[C@@H](C)C3CCC3)cn12 | Cbl (aa49-434) (Homo sapiens, UniProt P22681) | 1.1 |
| C[C@H](NCc1cc(C(=O)Nc2cccc([C@]3(c4nncn4C)C[C@@H](C)C3)c2)nc2c1CCC2(F)F)C1CC1 | Cbl (aa49-434) (Homo sapiens, UniProt P22681) | 9.2 |
| Cn1cnnc1[C@]1(c2cccc(NC(=O)c3cc(CNCC4(C)CCCC4)cn4ccnc34)c2)C[C@H](CC#N)C1 | Cbl (aa49-434) (Homo sapiens, UniProt P22681) | 4 |
| C[C@H](NCc1cc(C(=O)Nc2cccc([C@]3(c4nncn4C)C[C@@H](CC#N)C3)c2)nc2cc[nH]c12)C1CCC1 | Cbl (aa49-434) (Homo sapiens, UniProt P22681) | 0.7 |
| Cn1cnnc1[C@]1(c2cccc(NC(=O)c3cc(CNCC4CCC4)c4ccsc4n3)c2)C[C@H](C)C1 | Cbl (aa49-434) (Homo sapiens, UniProt P22681) | 2.3 |
| Cn1cnnc1[C@]1(c2cccc(NC(=O)c3cc(CNC4(C)CC4)cn4ccnc34)c2)C[C@@H](C)C1 | Cbl (aa49-434) (Homo sapiens, UniProt P22681) | 3.2 |

Consider the compound shown here: `Cn1cnnc1[C@]1(c2cccc(NC(=O)c3cc(CNC4(C)CCC4)cn4c(Cl)cnc34)c2)C[C@H](C)C1` What is its recorded IC50?
3.4

Consider the compound shown here: `C[C@H](NCc1cc(C(=O)Nc2cccc([C@]3(c4nncn4C)C[C@@H](C)C3)c2)nc2c(F)c[nH]c12)C1CCC1` What is its recorded IC50?
1.3

Consider the compound shown here: `Cn1cnnc1[C@]1(c2cccc(NC(=O)c3cc(CNC4(C)CC4)c4[nH]ccc4n3)c2)C[C@H](CC#N)C1` What is its recorded IC50?
4.1

Consider the compound shown here: `Cn1cnnc1[C@]1(c2cccc(NC(=O)c3cc(CNCC4CCC4)cn4ccnc34)c2)C[C@H](C)C1` What is its recorded IC50?
3.6
